Experimental target: JAK2 (Homo sapiens, UniProt O60674)
Construct: endogenous in cells
Sequence (O60674 whole entry): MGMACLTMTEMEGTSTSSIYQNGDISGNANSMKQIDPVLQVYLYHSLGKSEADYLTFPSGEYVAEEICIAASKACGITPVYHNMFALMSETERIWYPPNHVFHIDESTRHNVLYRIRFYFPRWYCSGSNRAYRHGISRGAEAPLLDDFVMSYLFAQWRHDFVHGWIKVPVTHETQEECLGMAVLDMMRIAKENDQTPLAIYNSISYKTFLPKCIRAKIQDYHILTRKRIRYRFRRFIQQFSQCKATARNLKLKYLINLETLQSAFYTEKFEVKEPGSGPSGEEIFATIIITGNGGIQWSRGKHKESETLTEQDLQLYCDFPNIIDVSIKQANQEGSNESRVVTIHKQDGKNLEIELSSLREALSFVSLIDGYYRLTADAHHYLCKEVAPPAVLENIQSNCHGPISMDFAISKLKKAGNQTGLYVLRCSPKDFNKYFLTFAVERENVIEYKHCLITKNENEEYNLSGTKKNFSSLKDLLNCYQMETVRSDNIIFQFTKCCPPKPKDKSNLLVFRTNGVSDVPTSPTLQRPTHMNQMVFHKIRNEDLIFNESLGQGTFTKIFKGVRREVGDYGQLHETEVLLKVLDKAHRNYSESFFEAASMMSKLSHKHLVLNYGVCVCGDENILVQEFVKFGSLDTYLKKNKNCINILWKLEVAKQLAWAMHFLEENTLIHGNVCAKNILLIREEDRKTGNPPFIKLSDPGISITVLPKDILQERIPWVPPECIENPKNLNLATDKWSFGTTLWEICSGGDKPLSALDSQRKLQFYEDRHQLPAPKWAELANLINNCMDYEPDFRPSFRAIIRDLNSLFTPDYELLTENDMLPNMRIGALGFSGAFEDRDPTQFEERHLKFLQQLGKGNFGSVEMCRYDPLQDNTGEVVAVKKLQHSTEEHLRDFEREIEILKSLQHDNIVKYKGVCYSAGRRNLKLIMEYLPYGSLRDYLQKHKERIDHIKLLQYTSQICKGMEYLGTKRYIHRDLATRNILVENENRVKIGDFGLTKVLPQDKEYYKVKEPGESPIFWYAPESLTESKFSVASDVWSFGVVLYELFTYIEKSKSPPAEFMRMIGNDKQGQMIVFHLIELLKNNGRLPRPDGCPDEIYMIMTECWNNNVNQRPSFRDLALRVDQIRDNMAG
Assay notes: Kinobeads assay, JAK2 (competition binding in mixed Molt4/Ramos cell lysate, dot blot detection)
Experimental parameters: read-out: JAK2 Band (Kinobeads assay potency, IC50)
Description: The compounds of the present invention as described in the previous examples were tested in a Kinobeads™ assay as described for ZAP-70 (WO-A 2007/137867). […] Bound proteins were then eluted and the presence of TYK2 and JAK2 was detected and quantified using specific antibodies in a dot blot procedure and the Odyssey infrared detection system. Dose response curves for individual kinases were generated and IC50 values calculated. […]
Measured property: IC50

CCOC(=O)Cn1cc(Nc2ncc(F)c(NCc3c(F)ccc(OC)c3F)n2)cn1    1 to 10 µM
Cc1cnc(Nc2cnn(CCO)c2)nc1NCc1ccc(S(N)(=O)=O)cc1    1 to 10 µM
Cc1cnc(Nc2cnn(CC(=O)N3CCOCC3)c2)nc1NCc1cc(F)cc(F)c1    0.01 to 0.1 µM
CC(C)NC(=O)Cn1cc(Nc2ncc(Cl)c(NCc3c(F)cc(F)cc3F)n2)cn1    > 10 µM

Consider the following items and state reported IC50 for each.
1. CNC(=O)Cn1cc(Nc2ncc(Cl)c(NCc3c(Cl)cccc3Cl)n2)cn1
2. C[C@H](O)Cn1cc(Nc2ncc(Cl)c(NCc3ccccc3F)n2)cn1
3. Cc1cnc(Nc2cnn(CCO)c2)nc1NCc1ccccc1

Response:
1 to 10 µM
0.1 to 1 µM
1 to 10 µM

====

Experimental target: TYK2 (Homo sapiens, UniProt P29597)
Construct: endogenous in cells; host or cells: Molt4 (ATCC CRL-1582) and Ramos (ATCC CRL-1596), mixed lysate 1:2
Sequence (P29597 whole entry): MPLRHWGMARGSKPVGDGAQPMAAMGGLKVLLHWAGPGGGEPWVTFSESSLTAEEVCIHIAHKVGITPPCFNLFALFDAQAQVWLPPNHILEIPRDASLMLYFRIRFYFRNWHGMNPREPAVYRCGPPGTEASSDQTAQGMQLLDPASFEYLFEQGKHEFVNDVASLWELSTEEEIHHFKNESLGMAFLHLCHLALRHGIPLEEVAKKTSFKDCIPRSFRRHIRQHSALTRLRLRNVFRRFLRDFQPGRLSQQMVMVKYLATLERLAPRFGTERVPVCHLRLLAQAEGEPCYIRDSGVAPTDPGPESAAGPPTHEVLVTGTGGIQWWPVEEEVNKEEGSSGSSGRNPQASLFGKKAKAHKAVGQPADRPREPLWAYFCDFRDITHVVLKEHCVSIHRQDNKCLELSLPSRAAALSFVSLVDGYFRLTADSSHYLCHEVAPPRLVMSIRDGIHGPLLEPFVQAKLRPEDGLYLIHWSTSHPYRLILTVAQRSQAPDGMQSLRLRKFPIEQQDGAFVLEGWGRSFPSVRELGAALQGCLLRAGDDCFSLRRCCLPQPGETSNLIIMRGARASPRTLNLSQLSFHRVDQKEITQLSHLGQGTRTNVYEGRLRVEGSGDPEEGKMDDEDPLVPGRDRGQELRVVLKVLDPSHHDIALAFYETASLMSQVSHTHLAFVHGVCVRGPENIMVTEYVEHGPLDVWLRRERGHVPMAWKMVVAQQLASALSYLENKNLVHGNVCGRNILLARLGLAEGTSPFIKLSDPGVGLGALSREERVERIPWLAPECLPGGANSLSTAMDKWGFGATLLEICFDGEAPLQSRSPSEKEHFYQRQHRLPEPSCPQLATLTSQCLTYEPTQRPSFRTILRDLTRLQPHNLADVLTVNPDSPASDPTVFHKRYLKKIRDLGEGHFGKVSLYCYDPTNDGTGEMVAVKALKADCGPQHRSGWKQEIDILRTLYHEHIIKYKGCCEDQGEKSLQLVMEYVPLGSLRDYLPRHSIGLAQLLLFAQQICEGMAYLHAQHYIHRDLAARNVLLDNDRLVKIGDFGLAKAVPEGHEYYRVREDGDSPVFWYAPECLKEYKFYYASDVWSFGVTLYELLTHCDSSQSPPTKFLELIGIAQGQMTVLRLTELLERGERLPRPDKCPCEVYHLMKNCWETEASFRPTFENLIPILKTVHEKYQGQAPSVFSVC
Assay notes: Kinobeads assay, TYK2 (competition binding in mixed Molt4/Ramos cell lysate, dot blot detection)
Experimental parameters: Kinobeads assay, Molt4/Ramos lysate; read-out: TYK2 Band (Kinobeads assay potency, IC50)
pIC50: −log10 of the molar value.
Please respond with reported pIC50 for every item in the list.

These recorded examples may help you get a feel for the data.
Cc1cnc(Nc2cnn(CC(=O)NC3CCC3)c2)nc1NCc1c(F)cc(F)cc1F    7.00 to 8.00
Cc1cnc(Nc2cnn(CC(=O)O)c2)nc1NCc1c(F)cc(F)cc1F    7.00 to 8.00
CNC(=O)Cn1cc(Nc2ncc(Cl)c(NCc3cc(C(F)(F)F)ccc3F)n2)cn1    7.00 to 8.00
COc1ccc(S(C)(=O)=O)cc1CNc1nc(Nc2cnn(C)c2)ncc1F    7.00 to 8.00

Consider the following items and state reported pIC50 for each.
1. CNC(=O)Cn1cc(Nc2ncc(Cl)c(NCc3ccccc3F)n2)cn1
2. CS(=O)(=O)Cc1cccc(CNc2nc(Nc3cnn(CC(N)=O)c3)ncc2Cl)c1
3. CNC(=O)Cn1cc(Nc2ncc(Cl)c(NCc3c(F)cc(F)cc3F)n2)cn1

Response:
["6.00 to 7.00", "6.00 to 7.00", "7.00 to 8.00"]

====

Experimental target: JAK2 (Homo sapiens, UniProt O60674)
Construct: endogenous in cells
Assay notes: Kinobeads assay, JAK2 (competition binding in mixed Molt4/Ramos cell lysate, dot blot detection)
Experimental parameters: read-out: JAK2 Band (Kinobeads assay potency, IC50)
pIC50: −log10 of the molar value.
Measured property: pIC50

These recorded examples may help you get a feel for the data.
CNC(=O)Cn1cc(Nc2ncc(Cl)c(NCc3cccc(OCC#N)c3)n2)cn1 [Example I-364]    5.00 to 6.00
Cn1cc(Nc2ncc(Cl)c(NCc3ncccc3F)n2)cn1 [Example I-260]    5.00 to 6.00
CC(C)N(C)C(=O)Cn1cc(Nc2nccc(NCc3c(F)cc(F)cc3F)n2)cn1 [Example I-317]    < 5.00
CC(NC(=O)Cn1cc(Nc2nccc(NCc3c(F)cc(F)cc3F)n2)cn1)C(F)F (stereo not shown) [Example I-149]    < 5.00
Cc1ccc(F)c(CNc2nc(Nc3cn[nH]c3)ncc2Cl)c1F [Example I-371]    5.00 to 6.00
Cn1cc(Nc2ncc(F)c(NCc3c(Cl)ccc(Cl)c3F)n2)cn1 [Example I-457]    6.00 to 7.00

Consider the following items and state reported pIC50 for each.
1. COc1ccc(F)c(CNc2ccnc(Nc3cnn(CC(=O)NC(C)C)c3)n2)c1F [Example I-65]
2. COc1ccc(F)c(CNc2nc(Nc3cnn(CCO)c3)ncc2Cl)c1F [Example I-320]
3. C[C@@H](CO)NC(=O)Cn1cc(Nc2nccc(NCc3c(F)ccc(C#N)c3F)n2)cn1 [Example I-153]
4. NC(=O)Cn1cc(Nc2nccc(NCc3c(F)cccc3F)n2)cn1 [Example I-313]

Response:
5.00 to 6.00
6.00 to 7.00
5.00 to 6.00
5.00 to 6.00

====

Please respond with reported IC50 for every item in the list.
Experimental target: JAK2 (Homo sapiens, UniProt O60674)
Construct: endogenous in cells
Assay notes: Kinobeads assay, JAK2 (competition binding in mixed Molt4/Ramos cell lysate, dot blot detection)
Experimental parameters: read-out: JAK2 Band (Kinobeads assay potency, IC50)

CNC(=O)Cn1cc(Nc2ncc(Cl)c(NCc3cc(Br)cc(F)c3F)n2)cn1    100 to 1000 nM
Cn1cc(Nc2ncc(Cl)c(NCc3cncc(F)c3)n2)cn1    100 to 1000 nM
CNC(=O)Cn1cc(Nc2ncc(Cl)c(NCc3cccc(F)c3F)n2)cn1    100 to 1000 nM
CS(=O)(=O)c1ccccc1CNc1nc(Nc2cnn(CC(F)F)c2)ncc1F    1000 to 10000 nM
CNC(=O)Cn1cc(Nc2ncc(Cl)c(NCc3cc(F)ccc3S(C)(=O)=O)n2)cn1    100 to 1000 nM

Consider the following items and state reported IC50 for each.
1. Cn1cc(Nc2ncc(F)c(NCc3c(F)cc(S(N)(=O)=O)cc3F)n2)cn1
2. O=C(Cn1cc(Nc2nccc(NCc3c(F)cc(F)cc3F)n2)cn1)NCC(F)F
3. Fc1ccc(F)c(CNc2nc(Nc3cnn(C(F)F)c3)ncc2Cl)c1

Response:
1: 1000 to 10000 nM; 2: 1000 to 10000 nM; 3: 100 to 1000 nM

====

Please respond with reported IC50 for every item in the list.
Experimental target: JAK2 (Homo sapiens)
Construct: endogenous in cells
Assay notes: Kinobeads assay, JAK2 (competition binding in mixed Molt4/Ramos cell lysate, dot blot detection)
Experimental parameters: read-out: JAK2 Band (Kinobeads assay potency, IC50)

These recorded examples may help you get a feel for the data.
NC(=O)Cn1cc(Nc2ncc(Cl)c(NCc3c(Cl)cccc3Cl)n2)cn1    100 to 1000 nM
COc1ccc(Cl)c(CNc2ccnc(Nc3cnn(CC(=O)N[C@H](C)CO)c3)n2)c1F    100 to 1000 nM
Cc1ccc(F)c(CNc2nc(Nc3cnn(CC(=O)N(C)C)c3)ncc2Cl)c1F    1000 to 10000 nM
OCCn1cc(Nc2ncc(F)c(NCc3c(F)cc(F)cc3F)n2)cn1    1000 to 10000 nM
CN(C)C(=O)Cn1cc(Nc2ncc(Cl)c(NCc3cc(OC(F)F)ccc3F)n2)cn1    1000 to 10000 nM

Consider the following items and state reported IC50 for each.
1. CNC(=O)Cn1cc(Nc2ncc(C)c(NCc3c(F)ccc(F)c3F)n2)cn1
2. Cc1cnc(Nc2cnn(CC(=O)O)c2)nc1NCc1c(F)cc(F)cc1F
3. OCCn1cc(Nc2ncc(Cl)c(NCc3ccccc3)n2)cn1

Response:
["100 to 1000 nM", "1000 to 10000 nM", "100 to 1000 nM"]

Consider the following items and state reported IC50 for each.
1. Cn1cc(Nc2ncc(Cl)c(NCc3cccc(Br)c3)n2)cn1
2. CS(=O)(=O)c1ccccc1CNc1nc(Nc2cnn(CCO)c2)ncc1F
3. O=C(Cn1cc(Nc2ncc(Cl)c(NCc3ccccc3)n2)cn1)N1CC2(COC2)C1

Response:
1: 1000 to 10000 nM; 2: 1000 to 10000 nM; 3: 1000 to 10000 nM

Consider the following items and state reported IC50 for each.
1. COc1ccc(F)c(CNc2nc(Nc3cnn(CC(=O)O)c3)ncc2F)c1F
2. CS(=O)(=O)NCc1cccc(CNc2nc(Nc3cnn(CC(N)=O)c3)ncc2Cl)c1
3. O=C(Cn1cc(Nc2nccc(NCc3c(F)cc(F)cc3F)n2)cn1)N[C@@H]1C[C@@H]1F

Response:
> 10000 nM
1000 to 10000 nM
1000 to 10000 nM

Consider the following items and state reported IC50 for each.
1. C[C@@H](C(N)=O)n1cc(Nc2ncc(Cl)c(NCc3ccccc3)n2)cn1
2. CC(C)NC(=O)Cn1cc(Nc2nccc(NCc3c(F)cncc3F)n2)cn1
3. O=C(Cn1cc(Nc2ncc(F)c(NCc3cc(F)cc(C(F)(F)F)c3)n2)cn1)N1CCOCC1
4. C[C@@H](CO)NC(=O)Cn1cc(Nc2nccc(NCc3c(Cl)cccc3Cl)n2)cn1
5. CC(C)(C)NC(=O)Cn1cc(Nc2ncc(F)c(NCc3c(F)cc(F)cc3F)n2)cn1
6. Cc1cccc(F)c1CNc1ccnc(Nc2cnn(CC(=O)N[C@@H](C)CO)c2)n1
7. CS(=O)(=O)c1ccc(F)cc1CNc1nc(Nc2cnn(CC(=O)NC3CC3)c2)ncc1Cl
8. COc1ccc(F)c(CNc2nc(Nc3cnn(CC(=O)N4CCOCC4)c3)ncc2Cl)c1F

Response:
1. 1000 to 10000 nM
2. > 10000 nM
3. 1000 to 10000 nM
4. 1000 to 10000 nM
5. 1000 to 10000 nM
6. 1000 to 10000 nM
7. 100 to 1000 nM
8. 100 to 1000 nM
